measurement.protocol: Half life in C57BL/6N mouse treated with JM6 (containing <0.4% Ro-61-8048) at 9.5 mg/kg, po and Ro-61-8048 at 0.05 mg/kg, po drugs administered via gavage by LC-MS/MS analysis
Format: ADME, organism-based
condition.info: in vivo, in the assay text read “0.5 mg/kg” for “0.05 mg/kg”
observed.property: half-life (h)

a = COc1ccc(S(=O)(=O)Nc2nc(-c3cccc([N+](=O)[O-])c3)c(CN3CCCCC3)s2)cc1OC
b = COc1ccc(S(=O)(=O)Nc2nc(-c3cccc([N+](=O)[O-])c3)cs2)cc1OC
Between the entries labelled a and b , which has a larger half-life value on record? Your answer should be the label attached to the chosen record. b
(b: 6.9 h, a: 0.9 h)

----------
measurement.protocol: Oral bioavailability in C57BL/6N mouse at 0.05 mg/kg administered via gavage by LC-MS/MS analysis
Assay type: ADME, organism-based
condition.info: in vivo
observed.property: bioavailability (%)
Give your result in % as a bare value.

Query (molecule): COc1ccc(S(=O)(=O)Nc2nc(-c3cccc([N+](=O)[O-])c3)cs2)cc1OC ; field requested: bioavailability 70

----------
measurement.protocol: Half life in C57BL/6N mouse at 0.05 mg/kg, po administered via gavage by LC-MS/MS analysis
Format: ADME, organism-based
Design: dose 0.05 mg/kg, route oral
condition.info: in vivo
observed.property: half-life (h)
Give your result in h as a bare value.

Query (compound): COc1ccc(S(=O)(=O)Nc2nc(-c3cccc([N+](=O)[O-])c3)cs2)cc1OC ; field requested: half-life 5.2

----------
measurement.protocol: Metabolic stability in rat plasma assessed as half life at 5 uM after 10 to 1440 mins by LC-MS/MS analysis
Type: ADME, cell-free
observed.property: half-life at 5 µM

{"query.smiles": "COc1ccc(S(=O)(=O)Nc2nc(-c3cccc([N+](=O)[O-])c3)cs2)cc1OC", "measured": "> 24 h"}

Query (molecule): COc1ccc(S(=O)(=O)Nc2nc(-c3cccc([N+](=O)[O-])c3)c(CN3CCCCC3)s2)cc1OC ; field requested: half-life at 5 µM > 24 h

----------
measurement.protocol: Tmax in C57BL/6N mouse at 0.05 mg/kg, po administered via gavage by LC-MS/MS analysis
Type: ADME, organism-based
Set-up: dose 0.05 mg/kg, route oral
condition.info: in vivo
observed.property: Tmax (min)
Give your result in min as a bare value.

Query (molecule): COc1ccc(S(=O)(=O)Nc2nc(-c3cccc([N+](=O)[O-])c3)cs2)cc1OC ; field requested: Tmax 30

----------
measurement.protocol: AUClast in C57BL/6N mouse at 0.05 mg/kg, po administered via gavage by LC-MS/MS analysis
Type: ADME, organism-based
Parameters: time 0 - last, dose 0.05 mg/kg, route oral
condition.info: plasma
observed.property: AUC(0-t) (µM·h)
Give your result in µM·h as a bare value.

Query (compound): COc1ccc(S(=O)(=O)Nc2nc(-c3cccc([N+](=O)[O-])c3)cs2)cc1OC ; field requested: AUC(0-t) 4.3

----------
measurement.protocol: Half life in C57BL/6N mouse treated with JM6 (containing <0.4% Ro-61-8048) at 25 mg/kg, po and Ro-61-8048 at 0.05 mg/kg, po drugs administered via gavage by LC-MS/MS analysis
Assay type: ADME, organism-based
condition.info: in vivo
observed.property: half-life (h)

A = COc1ccc(S(=O)(=O)Nc2nc(-c3cccc([N+](=O)[O-])c3)c(CN3CCCCC3)s2)cc1OC
B = COc1ccc(S(=O)(=O)Nc2nc(-c3cccc([N+](=O)[O-])c3)cs2)cc1OC
Between the entries labelled A and B , which has a larger half-life value on record? Your answer should be the label attached to the chosen record. B
(B: 5.2 h, A: 0.7 h)
